B1: Tudor domain-containing protein 3, residues 554 to 611; numbered along this chain, Q9H7E2 (parent)
chain: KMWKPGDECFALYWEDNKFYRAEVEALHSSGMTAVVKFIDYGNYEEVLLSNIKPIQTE

# Variants of: B1
# assayText: abundance fitness (aPCA) (normalised: wild type 0, dead -1); higher = more abundant; growth selection in yeast, the domain comes from the species named
# measurementSetup: Homo sapiens
For each record, write down the corresponding abundance fitness.
Answers are plain numbers.

Which abundance fitness value is on record for E25V ?
0.013

Which abundance fitness value is on record for L49P ?
-0.922

Which abundance fitness value is on record for E45H ?
-0.333

Which abundance fitness value is on record for L27Y ?
-0.911

Which abundance fitness value is on record for K4I ?
-0.415

Which abundance fitness value is on record for W3H ?
-0.842

Which abundance fitness value is on record for R21N ?
-0.678

Which abundance fitness value is on record for T33Y ?
-0.184

Which abundance fitness value is on record for S29T ?
-0.012

Which abundance fitness value is on record for I55V ?
-0.039

Report abundance fitness for each item below.
1. E46G
2. P5L

[-0.88, -0.261]

Every entry's value here was drawn from the Human Domainome abundance scans (Beltran et al. 2025).
